# Test system: Caco-2 cells
# ASSAY_SUMMARY: Endocytosis and intracellular trafficking mechanism with pathway inhibitors
# Format: cell-based
# MEASUREMENT_SETUP: 100 μM 6-MPNs, 0.5 h, intracellular 6-MP by HPLC
Counter-ions that a name gives are not always drawn.
ENDPOINT_LABEL: effect of endocytosis inhibitor on the internalization of 6-MPNs

A selection of reference data follows.
{"columns": ["MOLECULE", "RESULT"],
 "data": [
  ["O=c1c(-c2ccc(O)cc2)coc2cc(O)cc(O)c12", "less influence"],
  ["CCN(c1nc(N)c(C(=O)NC(=N)N)nc1Cl)C(C)C [EIPA, ethyl-isopropyl-amiloride]", "obviously reduced"],
  ["C=C1[C@@H](C)[C@H]2[C@H](Cc3ccccc3)NC(=O)[C@]23[C@H](OC(C)=O)/C=C/[C@@](C)(O)C(=O)[C@@H](C)C/C=C/[C@H]3[C@@H]1O", "less influence"],
  ["O=C(N/N=C/c1ccc(O)c(O)c1)c1cc2ccccc2cc1O", "obviously reduced"]
]}

Consider the record given below.
// returns reported effect of endocytosis inhibitor on the internalization of 6-MPNs for input CN(C)CCCN1c2ccccc2Sc2ccc(Cl)cc21 [CPZ, chlorpromazine hydrochloride] less influence
